Test system: PC-3 cells
assay-procedure: Cell Proliferation Assay (Cell Titer Glo), PC-3 cell line
Format: cell-based
test-parameters: Homo sapiens, PC-3, PC3 cells; read-out: CPEC50 PC3
pEC50: −log10 of the molar value.
value-type: pEC50

For orientation, consider the following solved cases.
- compound: "CC(=O)Nc1cccc(Nc2ncc3cccc(OC4CCN(C(C)C)CC4)c3n2)c1"
  pEC50: "> 5.30"
- compound: "C#Cc1cc(OC2CCCNCC2)c2nc(Nc3ccc(N4CCOCC4)cc3)ncc2c1 (stereo not shown)"
  pEC50: "> 5.30"
- compound: "CC(C)N1CCC(Oc2cccc3cnc(Nc4ccc(C(F)(F)F)cc4)nc23)CC1"
  pEC50: "> 5.30"
- compound: "COc1c(-c2cnn(C)c2)cc(Cl)c2cnc(Nc3ccc(C(=O)N4CCOCC4)cc3)nc12"
  pEC50: "> 5.30"
- compound: "NS(=O)(=O)c1ccc(Nc2ncc3cccc(-c4cncc(CN5CCOCC5)c4)c3n2)cc1"
  pEC50: "> 5.30"

Task item: Which pEC50 reading was recorded for the compound Fc1cccc(Nc2ncc3cccc(-c4ccc(NCCN5CCCC5)nc4)c3n2)c1 ?
Reply: > 5.30

Task item: Which pEC50 reading was recorded for the compound CN1CCN(c2ccc(-c3cccc4cnc(Nc5ccc(S(N)(=O)=O)cc5)nc34)cc2)CC1 ?
Reply: > 5.30

Task item: Which pEC50 reading was recorded for the compound CC(C)Cn1cc(-c2ccc3cnc(Nc4ccc(N5CCN(C)CC5)cc4)nc3c2)cn1 ?
Reply: > 5.30

Task item: Which pEC50 reading was recorded for the compound NS(=O)(=O)c1ccc(Nc2ncc3cccc(CNCCN4CCCC4)c3n2)cc1 ?
Reply: 5.00 to 5.30

Task item: Which pEC50 reading was recorded for the compound CCN1CCC[C@@H]1CNc1ccc(-c2cccc3cnc(Nc4ccc(S(N)(=O)=O)cc4)nc23)cn1 ?
Reply: > 5.30

Task item: Which pEC50 reading was recorded for the compound NS(=O)(=O)c1ccc(Nc2ncc3cc(C(F)(F)F)cc(-c4ccc(NCCN5CCCC5)nc4)c3n2)cc1 ?
Reply: > 5.30

Task item: Which pEC50 reading was recorded for the compound CC(C)N1CCC(Oc2cccc3cnc(Nc4ccc(NC(=O)N5CCCC5)cc4)nc23)CC1 ?
Reply: > 5.30

Task item: Which pEC50 reading was recorded for the compound Nc1ncc(-c2cccc3cnc(Nc4ccc(S(N)(=O)=O)cc4)nc23)cc1C(F)(F)F ?
Reply: > 5.30

Task item: Which pEC50 reading was recorded for the compound NS(=O)(=O)c1ccc(Nc2ncc3cccc(-c4cncc(C(=O)N5CCOCC5)c4)c3n2)cc1 ?
Reply: 5.00 to 5.30

Task item: Which pEC50 reading was recorded for the compound CC(C)NS(=O)(=O)c1ccc(Nc2ncc3cccc(-c4ccc(NCCN5CCCC5)nc4)c3n2)cc1 ?
Reply: > 5.30

Task item: Which pEC50 reading was recorded for the compound CNS(=O)(=O)Cc1ccc(Nc2ncc3cccc(OC4CCN(C(C)C)CC4)c3n2)cc1 ?
Reply: > 5.30

Task item: Which pEC50 reading was recorded for the compound CC(C)N1CCC(Oc2ccc3cnc(Nc4ccc(Cl)cc4)nc3c2)CC1 ?
Reply: > 5.30

Task item: Which pEC50 reading was recorded for the compound Nc1ncc(-c2ccc3cnc(Nc4ccc(S(N)(=O)=O)cc4)nc3c2OC2CCNCC2)cc1C(F)(F)F ?
Reply: > 5.30

Task item: Which pEC50 reading was recorded for the compound COc1cc(Nc2ncc3ccc(OC4CCNCC4)cc3n2)cc(OC)c1 ?
Reply: > 5.30

Task item: Which pEC50 reading was recorded for the compound NS(=O)(=O)c1ccc(Nc2ncc3cccc(-c4ccc(CN5CCOCC5)cc4)c3n2)cc1 ?
Reply: > 5.30

Task item: Which pEC50 reading was recorded for the compound CC(C)N1CCN(c2ccc(-c3cccc4cnc(Nc5ccc(S(N)(=O)=O)cc5)nc34)cn2)CC1 ?
Reply: > 5.30

Task item: Which pEC50 reading was recorded for the compound CN1CCC(CNC(=O)c2cncc(-c3cccc4cnc(Nc5ccc(S(N)(=O)=O)cc5)nc34)c2)CC1 ?
Reply: 5.00 to 5.30
